Target: T1, human BKB2R-derived epitope peptide (SEQ ID NO:73), PEG-biotin (human, also: PEG-biotin, site not given here)
T1 construct: also called immunogenic human BKB2R peptide fragment
T1 peptide: KEYSDEGHNVTAC
Assay: BLI (Octet), peptide-PEG-biotin on streptavidin sensor, antibody 500 nM
Description: For the Octet study, antibodies were analyzed by kinetic titration of the antibodies. […] Sensor Prep: Streptavidin biosensors (FortéBio Inc, Menlo Park, Calif.) were coated by incubation in a solution containing a peptide ([…]-PEG-biotin) (Biosyn, Lewisville, Tex.) at 50 μg/ml (300 seconds/1000 rpm shaking). […] Octet system software calculated kinetic constants for on rate/off rate/affinity. […]
Where no end group is shown, it is not given here.
Kd listing for selected binders.
Write the answer as a number in nM, unit excluded.

Worked cases, answers included:
binder | Kd / nM
humanized anti-BKB2R antibody H39/L39 (antibody, human IgG2, kappa, V domains shown) VH: EVKLVESGGGLVQPGGSLRLSCAVSGFTFSDYWMDWVRQAPGKGLEWVAEIRLKSDNYATHYAASVKGRFTISRDDSKSRLYLQMNSLKTEDTAVYYCTRDYYAMEYWGQGTTVTVSS VL: DVVMTQTPLSLSVTPGQPASISCKSSQTIVHSNGKTYLEWYLQKPGQSPQLLIYKVSNRFSGVPDRFSGSGSGTDFTLKISRVEAEDVGVYYCFQASHVPYTFGQGTKLEIKR | 1730
chimeric/humanized anti-BKB2R antibody L2/HC (antibody, human IgG2, V domains shown, not shown: human IgG2 constant region) VH: EVKLEESGGGLVQPGGSMKLSCVVSGFTFSDYWMSWVRHSPEMGLEWVAEIRLKSDNYATHYAESVKGRFTISRDDSKSRLYLQINSLRGEDTGIYYCTRDYYAMEYWGQGTSVTVSS VL: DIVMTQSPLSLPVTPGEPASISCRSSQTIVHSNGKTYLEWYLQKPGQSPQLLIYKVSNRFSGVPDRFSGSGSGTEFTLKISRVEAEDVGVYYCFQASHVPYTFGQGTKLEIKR | 4530
humanized anti-BKB2R antibody H37/L39 (antibody, human IgG2, kappa, V domains shown) VH: EVQLVESGGGLVQPGGSLRLSCAASGFTFSDYWMDWVRQAPGKGLEWVGEIRLKSDNYATHYAASVKGRFTISRDDSKNSLYLQMNSLKTEDTAVYYCTRDYYAMEYWGQGTTVTVSS VL: DVVMTQTPLSLSVTPGQPASISCKSSQTIVHSNGKTYLEWYLQKPGQSPQLLIYKVSNRFSGVPDRFSGSGSGTDFTLKISRVEAEDVGVYYCFQASHVPYTFGQGTKLEIKR | 1230
humanized anti-BKB2R antibody H38/L39 (antibody, human IgG2, kappa, V domains shown) VH: EVQLLESGGGLVQPGGSLKLSCAVSGFTFSDYWMSWVRQAPGKGLEWVSEIRLKSDNYATHYADSVKGRFTISRDDSKNTLYLQMNSLRAEDTAVYYCTRDYYAMEYWGQGTLVTVSS VL: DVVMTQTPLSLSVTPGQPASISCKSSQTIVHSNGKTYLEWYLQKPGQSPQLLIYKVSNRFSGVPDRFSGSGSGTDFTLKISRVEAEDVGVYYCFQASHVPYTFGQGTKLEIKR | 93.2

--- query ---
Problem: Find the recorded Kd belonging to humanized anti-BKB2R antibody L2/H1 (antibody, human IgG2, kappa, V domains shown) VH: EVQLVESGGGLVQPGGSLRLSCAASGFTFSDYWMSWVRQAPGKGLEWVAEIRLKSDNYATHYAESVKGRFTISRDNAKNSLYLQMNSLRAEDTAVYYCTRDYYAMEYWGQGTLVTVSS VL: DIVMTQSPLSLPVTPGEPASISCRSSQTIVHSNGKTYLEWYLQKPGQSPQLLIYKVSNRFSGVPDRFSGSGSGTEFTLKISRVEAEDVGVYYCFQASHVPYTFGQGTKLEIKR and report it.
Result: 4.19
